Entry source: ChEMBL document CHEMBL1154047

Item-by-item account of Ratio IC50
System: HeLa
experiment.notes: Ratio of compound IC50 to cisplatin IC50 for human HeLa cells
Assay type: functional
Just the number.

Use the examples below as a reference point.
compound	Ratio IC50
Cc1cc2c(c(O)c1-c1c(C)cc3c(c1O)/C(=C/N[C@H](CO)Cc1ccccc1)C(=O)C(O)=C3C(C)C)/C(=C/N[C@H](CO)Cc1ccccc1)C(=O)C(O)=C2C(C)C (stereo in doubt; 2a)	2.1
CC1=C(C2=C(C)C(=O)c3c(c(C=O)c(O)c(O)c3C(C)C)C2=O)C(=O)c2c(C=O)c(O)c(O)c(C(C)C)c2C1=O	1.85
Cc1cc2c(c(O)c1-c1c(C)cc3c(c1O)/C(=C/NCCc1ccccc1)C(=O)C(O)=C3C(C)C)/C(=C/NCCc1ccccc1)C(=O)C(O)=C2C(C)C (stereo in doubt; 3a)	4.11
COC(=O)[C@H](Cc1ccccc1)N/C=C1\C(=O)C(O)=C(C(C)C)c2cc(C)c(-c3c(C)cc4c(c3O)/C(=C/N[C@@H](Cc3ccccc3)C(=O)OC)C(=O)C(O)=C4C(C)C)c(O)c21 (stereo in doubt; 7b)	5.48

// moving on: another record for Ratio IC50
Prompt line: # input compound: Cc1cc2c(c(O)c1-c1c(C)cc3c(c1O)/C(=C/NCCc1ccccc1)C(=O)C(O)=C3C(C)C)/C(=C/NCCc1ccccc1)C(=O)C(O)=C2C(C)C (stereo in doubt; 3b) ; wanted: its Ratio IC50
Response line: 3.17

###

experiment.notes: Anticancer activity against human U87 cells after 48 hrs by MTT assay
Format: functional, cell-based, U-87MG ATCC
test.settings: u-87mg atcc
metric: pIC50
Please express pIC50 as -log10 of the molar concentration.

Use the examples below as a reference point.
molecule	quantitative.result
COC(=O)[C@H](Cc1ccc(O)cc1)N/C=C1\C(=O)C(O)=C(C(C)C)c2cc(C)c(-c3c(C)cc4c(c3O)/C(=C/N[C@@H](Cc3ccc(O)cc3)C(=O)OC)C(=O)C(O)=C4C(C)C)c(O)c21 (stereo in doubt; 8b)	4.84
Cc1cc2c(C(C)C)c(O)c(O)c(C=O)c2c(O)c1-c1c(C)cc2c(C(C)C)c(O)c(O)c(C=O)c2c1O [GOSSYPOL]	4.22
Cc1cc2c(c(O)c1-c1c(C)cc3c(c1O)/C(=C/N[C@H](CO)[C@H](O)c1ccc([N+](=O)[O-])cc1)C(=O)C(O)=C3C(C)C)/C(=C/N[C@H](CO)[C@H](O)c1ccc([N+](=O)[O-])cc1)C(=O)C(O)=C2C(C)C (stereo in doubt; 1b)	4.88
Cc1cc2c(c(O)c1-c1c(C)cc3c(c1O)/C(=C/NC1CC1)C(=O)C(O)=C3C(C)C)/C(=C/NC1CC1)C(=O)C(O)=C2C(C)C (stereo in doubt; 5b)	4.49

// moving on: another record for pIC50
Prompt line: # input molecule: Cc1cc2c(c(O)c1-c1c(C)cc3c(c1O)/C(=C/NC(C)C)C(=O)C(O)=C3C(C)C)/C(=C/NC(C)C)C(=O)C(O)=C2C(C)C (stereo in doubt; 10b) ; wanted: its pIC50
Response line: 4.61

###

experiment.notes: Anticancer activity against human M85 cells after 48 hrs by MTT assay
Type: functional, cell-based
test.settings: Homo sapiens, M85, 48 h
metric: pIC50
Please express pIC50 as -log10 of the molar concentration.

molecule	pIC50
CC1=C(C2=C(C)C(=O)c3c(c(C=O)c(O)c(O)c3C(C)C)C2=O)C(=O)c2c(C=O)c(O)c(O)c(C(C)C)c2C1=O	4.55

// moving on: another record for pIC50
Prompt line: # input molecule: Cc1cc2c(c(O)c1-c1c(C)cc3c(c1O)/C(=C/NC1CC1)C(=O)C(O)=C3C(C)C)/C(=C/NC1CC1)C(=O)C(O)=C2C(C)C (stereo in doubt; 5a) ; wanted: its pIC50
Response line: 4.76

###

experiment.notes: Anticancer activity against human M85 cells after 48 hrs by MTT assay
Type: functional, cell-based
test.settings: m85
pIC50: −log10 of the molar value.
Threshold rule: pIC50 greater than or equal to 5 is 1 (yes); below that, 0 (no).

Prompt line: Exam item: decide whether the reported pIC50 for COC(=O)[C@H](Cc1c[nH]c2ccccc12)N/C=C1\C(=O)C(O)=C(C(C)C)c2cc(C)c(-c3c(C)cc4c(c3O)/C(=C/N[C@@H](Cc3c[nH]c5ccccc35)C(=O)OC)C(=O)C(O)=C4C(C)C)c(O)c21 (stereo in doubt; 9b) is at least 5.
Response line: 0 (no)

Prompt line: Exam item: decide whether the reported pIC50 for Cc1cc2c(c(O)c1-c1c(C)cc3c(c1O)/C(=C/N[C@H](CO)[C@H](O)c1ccc([N+](=O)[O-])cc1)C(=O)C(O)=C3C(C)C)/C(=C/N[C@H](CO)[C@H](O)c1ccc([N+](=O)[O-])cc1)C(=O)C(O)=C2C(C)C (stereo in doubt; 1b) is at least 5.
Response line: 1 (yes)

Prompt line: Exam item: decide whether the reported pIC50 for Cc1cc2c(c(O)c1-c1c(C)cc3c(c1O)/C(=C/NC1CC1)C(=O)C(O)=C3C(C)C)/C(=C/NC1CC1)C(=O)C(O)=C2C(C)C (stereo in doubt; 5b) is at least 5.
Response line: 0 (no)

Prompt line: Exam item: decide whether the reported pIC50 for Cc1cc2c(c(O)c1-c1c(C)cc3c(c1O)/C(=C/NCCCO)C(=O)C(O)=C3C(C)C)/C(=C/NCCCO)C(=O)C(O)=C2C(C)C (stereo in doubt; 4b) is at least 5.
Response line: 1 (yes)

Prompt line: Exam item: decide whether the reported pIC50 for Cc1cc2c(C(C)C)c(O)c(O)cc2c(O)c1-c1c(C)cc2c(C(C)C)c(O)c(O)cc2c1O [APOGOSSYPOL] is at least 5.
Response line: 0 (no)

Prompt line: Exam item: decide whether the reported pIC50 for Cc1cc2c(c(O)c1-c1c(C)cc3c(c1O)/C(=C/NC(C)C)C(=O)C(O)=C3C(C)C)/C(=C/NC(C)C)C(=O)C(O)=C2C(C)C (stereo in doubt; 10b) is at least 5.
Response line: 0 (no)

Prompt line: Exam item: decide whether the reported pIC50 for COC(=O)[C@H](Cc1ccc(O)cc1)N/C=C1\C(=O)C(O)=C(C(C)C)c2cc(C)c(-c3c(C)cc4c(c3O)/C(=C/N[C@@H](Cc3ccc(O)cc3)C(=O)OC)C(=O)C(O)=C4C(C)C)c(O)c21 (stereo in doubt; 8b) is at least 5.
Response line: 0 (no)

Prompt line: Exam item: decide whether the reported pIC50 for Cc1cc2c(c(O)c1-c1c(C)cc3c(c1O)/C(=C/N[C@H](CO)[C@H](O)c1ccc([N+](=O)[O-])cc1)C(=O)C(O)=C3C(C)C)/C(=C/N[C@H](CO)[C@H](O)c1ccc([N+](=O)[O-])cc1)C(=O)C(O)=C2C(C)C (stereo in doubt; 1a) is at least 5.
Response line: 0 (no)

Prompt line: Exam item: decide whether the reported pIC50 for Cc1cc2c(c(O)c1-c1c(C)cc3c(c1O)/C(=C/NCCCO)C(=O)C(O)=C3C(C)C)/C(=C/NCCCO)C(=O)C(O)=C2C(C)C (stereo in doubt; 4a) is at least 5.
Response line: 0 (no)

Prompt line: Exam item: decide whether the reported pIC50 for Cc1cc2c(c(O)c1-c1c(C)cc3c(c1O)/C(=C/Nc1ccc(Br)cc1)C(=O)C(O)=C3C(C)C)/C(=C/Nc1ccc(Br)cc1)C(=O)C(O)=C2C(C)C (stereo in doubt; 6b) is at least 5.
Response line: 0 (no)

###

Test system: HeLa
experiment.notes: Anticancer activity against human HeLa cells after 48 hrs by MTT assay
Assay type: functional, cell-based
test.settings: Homo sapiens, HeLa, 48 h
metric: pIC50
Please express pIC50 as -log10 of the molar concentration.

compound	quantitative.result
Cc1cc2c(c(O)c1-c1c(C)cc3c(c1O)/C(=C/N[C@H](CO)Cc1ccccc1)C(=O)C(O)=C3C(C)C)/C(=C/N[C@H](CO)Cc1ccccc1)C(=O)C(O)=C2C(C)C (stereo in doubt; 2a)	4.58

Prompt line: # input compound: COC(=O)[C@H](Cc1ccc(O)cc1)N/C=C1\C(=O)C(O)=C(C(C)C)c2cc(C)c(-c3c(C)cc4c(c3O)/C(=C/N[C@@H](Cc3ccc(O)cc3)C(=O)OC)C(=O)C(O)=C4C(C)C)c(O)c21 (stereo in doubt; 8a) ; wanted: its pIC50
Response line: 4.66

###

Test system: HeLa
experiment.notes: Anticancer activity against human HeLa cells after 48 hrs by MTT assay
Assay type: functional, cell-based
test.settings: Homo sapiens, HeLa, 48 h
metric: IC50

Use the examples below as a reference point.
compound	tested.on	IC50
Cc1cc2c(c(O)c1-c1c(C)cc3c(c1O)/C(=C/Nc1ccc(Br)cc1)C(=O)C(O)=C3C(C)C)/C(=C/Nc1ccc(Br)cc1)C(=O)C(O)=C2C(C)C (stereo in doubt; 6a)	HeLa	73.7 µM
Cc1cc2c(c(O)c1-c1c(C)cc3c(c1O)/C(=C/NCCc1ccccc1)C(=O)C(O)=C3C(C)C)/C(=C/NCCc1ccccc1)C(=O)C(O)=C2C(C)C (stereo in doubt; 3a)	HeLa	51.8 µM
Cc1cc2c(c(O)c1-c1c(C)cc3c(c1O)/C(=C/NCCCO)C(=O)C(O)=C3C(C)C)/C(=C/NCCCO)C(=O)C(O)=C2C(C)C (stereo in doubt; 4a)	HeLa	10.7 µM

Prompt line: # input compound: COc1c(OC)c2c3c(c(-c4c(C)cc5c(C(C)C)c(OC)c(OC)c6c5c4OC6OC)c(C)cc3c1C(C)C)OC2OC (stereo not drawn) [(-)-GOSSYPOL HEXAMETHYL ETHER] ; wanted: its IC50
Response line: > 80 µM

Prompt line: # input compound: `CC1=C(C2=C(C)C(=O)c3c(c(C=O)c(O)c(O)c3C(C)C)C2=O)C(=O)c2c(C=O)c(O)c(O)c(C(C)C)c2C1=O` ; wanted: its IC50
Response line: 23.3 µM

Prompt line: # input compound: `Cc1cc2c(C(C)C)c(O)c(O)c(C=O)c2c(O)c1-c1c(C)cc2c(C(C)C)c(O)c(O)c(C=O)c2c1O` ; wanted: its IC50
Response line: 17.8 µM
